Measured solubility kinetic of individual entries
Conditions: buffer; pH 7.4; 200.0 µM
Provide the reading as a plain figure in µg/mL.

Completed entries (count: 5):
O=C(Nc1ccccc1C(F)(F)F)c1ccccn1 : 6.7
O=C(N1CCCC1)C12CC3CC(CC(Cl)(C3)C1)C2 : 37.9
Cc1ccc(NC(=O)COCC(=O)Nc2ccc(C)cc2)cc1 : 3.1
O=S(=O)(c1ccc(N2CCCC2)nc1)N1CCCC1 : 36.4
OCCC1CCCCN1CC(O)COCc1ccc(Cl)cc1 (stereo unspecified) : 45.1

Prompt: Would you mind telling me what solubility kinetic value was observed for Cc1ccc2c(CN3CCN(Cc4ccccc4)CC3)cc(=O)oc2c1C ?
Response: 25.4

Prompt: Would you mind telling me what solubility kinetic value was observed for CC(NC(=O)c1ccco1)C(=O)OC(C)C(=O)NCc1ccccc1 (stereo unspecified) ?
Response: 46.3

Prompt: Would you mind telling me what solubility kinetic value was observed for CCOC(=O)c1ccc(NC(=O)NC2CC3CCC(C2)N3)cc1 (stereo unspecified) ?
Response: 43.5

Prompt: Would you mind telling me what solubility kinetic value was observed for COc1ccccc1OC(C)C(=O)N1CCc2ccccc21 (stereo unspecified) ?
Response: 3.3

Prompt: Would you mind telling me what solubility kinetic value was observed for CCCc1c(C)nc(N2CCN(c3ccccc3F)CC2)[nH]c1=O ?
Response: 0.4

Prompt: Would you mind telling me what solubility kinetic value was observed for Cc1ccc(C)n1CCN1CCN(S(=O)(=O)c2ccc(F)cc2F)CC1 ?
Response: 26.1
